system: MCF7; assay: Antiproliferative activity against human MCF7 cells assessed as inhibition of cell proliferation measured after 72 hrs by MTT assay; assay type: functional, cell-based; details: MCF7, 72 h
quantity.kind: IC50 (µM)
Give the number; µM is assumed, so skip it.

Some molecules with recorded IC50:
mol=Cc1cc(Nc2cc(-c3ccccc3)[nH]n2)n2nc(SCc3ccc([N+](=O)[O-])cc3)nc2n1 quantity_kind=IC50 unit_spec=µM recorded_value=5.06
mol=Cc1cc(Nc2ccn(Cc3nc(C)c4ccccc4n3)n2)n2nc(SCc3ccc(Br)cc3)nc2n1 quantity_kind=IC50 unit_spec=µM recorded_value=1.43

Prompt: State IC50 (MCF7) of Cc1cc(Nc2ccn(Cc3ccc(F)cc3)n2)n2nc(SCc3ccc(Br)cc3)nc2n1 .
Completion: 4.28

Prompt: Given Cc1cc(Nc2cc(-c3ccccc3)[nH]n2)n2nc(SCc3cc(=O)oc4c3ccc3ccccc34)nc2n1 , report its IC50 on MCF7.
Completion: 4.28

Prompt: Look up MCF7 data: IC50 of Cc1cc(Nc2cc(-c3ccccc3)[nH]n2)n2nc(SCc3cccc4ccccc34)nc2n1 , then report it.
Completion: 7.56

Prompt: Print MCF7 IC50 for O=c1[nH]cc(F)c(=O)[nH]1 .
Completion: 5.32

Prompt: Give IC50; test system MCF7; molecule Cc1cc(Nc2ccn(Cc3cccc4ccccc34)n2)n2nc(SCc3ccc(Br)cc3)nc2n1
Completion: 4.31
